Molecular target: RORγ-LBD (Homo sapiens, UniProt P51449)
Construct: made in house; host or cells: SF9 cells (baculovirus); used as diluted lysate
Sequence (P51449 269-508 limits assumed): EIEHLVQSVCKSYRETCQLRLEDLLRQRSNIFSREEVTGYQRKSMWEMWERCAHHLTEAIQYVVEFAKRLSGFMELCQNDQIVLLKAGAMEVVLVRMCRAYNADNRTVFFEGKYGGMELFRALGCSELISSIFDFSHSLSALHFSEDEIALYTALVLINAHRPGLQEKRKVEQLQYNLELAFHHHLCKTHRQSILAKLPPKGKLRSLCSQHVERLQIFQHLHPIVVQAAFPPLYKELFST
Experiment: RORγ-Ligand Binding Domain (LBD) TR-FRET Assay
Format: biochemical
Conditions: RORγ-LBD TR-FRET assay
Method: Assay procedures and results are described below. HIS-tagged RORγ-LBD protein was expressed in SF9 cells using a baculovirus expression system. The lysate was diluted in assay buffer (50 mM Tris pH 7.0, 50 mM KCl, 1 mM EDTA, 0.1 mM DTT, 0.01% BSA) to obtain RORγ-LBD final concentration of ˜3 nM in a 384-well assay plate (need to titrate for each batch of protein). […]
readout-name: EC50

Recorded EC50, per entry:
CCOc1ncc(C(F)(F)F)cc1S(=O)(=O)N1C[C@H](CNC(=O)CCC(=O)O)Oc2ccc(/C=C/c3c(F)cccc3Cl)cc21 [Example 109F] ... < 500 nM
C/C(=C\c1ccc2c(c1)N(S(=O)(=O)c1cccc(C(F)(F)F)c1)C[C@H](CCC(C)(C)O)O2)c1c(F)cccc1Cl [Example 121B] ... < 500 nM

Prompt: Value lookup for EC50; key = `COc1cc(S(=O)(=O)N2C[C@H](CNC(C)=O)Oc3c(F)cc(/C=C(\C)c4c(F)cccc4Cl)cc32)ccc1F`
Completion: < 500 nM
